molecular target: T1, HLA-DP4 molecule DP401 (DPA1*0103/DPB1*0401) (human), P20036; experiment: direct binding ELISA, 10^-8 M peptide
T1 chain 1: not shown
T1 chain 2: not shown
assay.endpoint: RF (fluorescence with DP4/without DP4)

Field: example entries. Status: answers known.
>>> measured_result("LLTQHFVQENYLEY (modifications not checked) [bMAG 245-258]")
5.4
>>> measured_result("GPGAPADVQYDLYLNVANRR (modifications not checked) [bIL3 127-146]")
17.3
>>> measured_result("IAFNSGMEPGVVAEKV (modifications not checked) [bMT 451-466]")
2
>>> measured_result("RELWWVFYAGDRALEEPHAE (modifications not checked) [bUL21 283-302]")
10.1

I would be grateful if you could share the reported RF (fluorescence with DP4/without DP4) for GVQIVRQIRSGERFLKIWSQ (modifications not checked) [bNS-p2] . 7.8

I would be grateful if you could share the reported RF (fluorescence with DP4/without DP4) for PKYVKQNTLKLAT (modifications not checked) [bHA 306-318] . 2.7
